# Method: AUC in monkey at 4 mg/kg, iv
# Assay type: ADME, organism-based, Macaca mulatta
# Design: dose 4 mg/kg
# Assay Setup: rhesus monkey, in vivo
Reported Property: AUC
Just so you know, I need the unit written after the number.

IN: Which measured AUC value corresponds to COc1cccc2[nH]c(C(=O)N[C@@H](CC(C)C)C(=O)N[C@@H](C[C@@H]3CCNC3=O)C(=O)CO)cc12 ?
OUT: 3.8 µg·h/mL

----------
# Method: Reversible inhibition of SARS coronavirus Urbani 3CL protease(9985 to 10902) using TAMRA-SITSAVLQSGFRKMK(DABCYL)-OH as substrate measured for 10 mins by FRET assay
Reported Property: IC50 (nM)
Return type: number; implicit unit nM.

IN: Which measured IC50 value corresponds to COc1cccc2[nH]c(C(=O)N[C@@H](CCC(C)C)C(=O)N[C@@H](C[C@@H]3CCNC3=O)C(=O)CO)cc12 ?
OUT: 34

IN: Which measured IC50 value corresponds to CC(C)(C)C[C@H](NC(=O)[C@H]1CCCO1)C(=O)N[C@@H](C[C@@H]1CCNC1=O)C(=O)CO ?
OUT: 91

IN: Which measured IC50 value corresponds to COCC(=O)[C@H](C[C@@H]1CCNC1=O)NC(=O)[C@H](CC(C)C)NC(=O)c1cc2c(OC)cccc2[nH]1 ?
OUT: 53

IN: Which measured IC50 value corresponds to COCC(=O)[C@H](C[C@@H]1CCNC1=O)NC(=O)[C@H](CC(C)(C)C)NC(=O)c1cc2ccccc2[nH]1 ?
OUT: 105
